Origin of the recorded values: patent US20240254222A1

Target: T1, Human Semaphorin3A-Sema Domain, TPP-19068 (human, UniProt Q14563 21-569)
T1 construct: produced inhouse in HEK293-6E; also called human monovalent Sema3A domain
T1 sequence: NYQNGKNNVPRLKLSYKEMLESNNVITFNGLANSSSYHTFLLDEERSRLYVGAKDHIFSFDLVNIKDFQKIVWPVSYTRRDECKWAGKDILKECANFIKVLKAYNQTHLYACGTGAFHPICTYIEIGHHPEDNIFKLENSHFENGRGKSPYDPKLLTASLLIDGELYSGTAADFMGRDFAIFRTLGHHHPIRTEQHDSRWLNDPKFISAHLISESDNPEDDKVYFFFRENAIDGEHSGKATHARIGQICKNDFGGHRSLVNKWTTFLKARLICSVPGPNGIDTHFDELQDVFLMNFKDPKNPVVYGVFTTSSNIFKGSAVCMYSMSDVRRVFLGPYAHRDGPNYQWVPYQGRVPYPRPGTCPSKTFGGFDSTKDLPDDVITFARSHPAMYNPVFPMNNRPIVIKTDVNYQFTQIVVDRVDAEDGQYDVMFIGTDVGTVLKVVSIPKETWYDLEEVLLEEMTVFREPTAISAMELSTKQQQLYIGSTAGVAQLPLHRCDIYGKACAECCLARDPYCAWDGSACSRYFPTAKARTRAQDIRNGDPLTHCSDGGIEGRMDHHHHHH
Test: SPR, captured antibody, Sema3A domain analyte
value-kind: Binding Activity [%]
Entry format: amount then unit.

TPP-30788 (antibody, human IgG1, kappa, V domains shown, prior art, WO 2020/225400; also called BI clone I; Böhringer (BI) Clone I) VH: EVQLVESGGGLVQPGGSLRLSCAASGFTFSSYYMSWVRQAPGKGLEWVSTIIKSGGYAYYPDSVKDRFTISRDNSKNTLYLQMSSLRAEDTAVYYCVRGGQGAMDYWGQGTTVTVSS VL: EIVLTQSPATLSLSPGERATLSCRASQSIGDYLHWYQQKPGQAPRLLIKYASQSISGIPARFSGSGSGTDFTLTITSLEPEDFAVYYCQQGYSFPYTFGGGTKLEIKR ... 107%

Pending binder:
Value of Binding Activity [%] reported for the binder TPP-17755 (antibody, human IgG1, lambda, V domains shown, also called Samsung; Samsung Prior Art F11) VH: EVQLLESGGGLVQTGGSLRLSCAASGFTFSDYAMSWVRQAPGKGLEWVSWIYYDSGSKYYADSVKGRFTISRDNSKNTLYLQMNSLRAEDTAVYYCAKLNGDFDYWGQGTLVTVSS VL: QSVLTQPPSASGTPGQRVTISCSGSSSNIGNNDVSWYQQLPGTAPKLLIYADSHRPSGVPDRFSGSKSGTSASLAISGLRSEDEADYYCGAWDSSLSGYVFGGGTKLTVLG is 55%
